Where do these numbers come from? They come from patent US6342508B1.

Would you mind telling me the reported melting point of each entry?

Your task in this section: give melting point for each listed record.
1. COc1ccc(S(=O)(=O)C(C)(Cc2ccc(Br)cc2)C(=O)NO)cc1 (stereo not drawn)
2. COc1ccc(S(=O)(=O)C(C)(CCCCN2C(=O)c3ccccc3C2=O)C(=O)NO)cc1 (stereo not drawn)
3. CC(C)=CCC(CC=C(C)C)(C(=O)NO)S(=O)(=O)c1ccc(C)cc1

86 to 88 °C
146 to 148 °C
108 to 110 °C
